- Target Of Assay: Human M4 mAChR (Homo sapiens, UniProt P08173)
- Construct: host or cells: HEK293 (Sor-L9 HEK293 human/M4/GloSensor Cell Clone Number 40)
- Sequence (P08173 whole entry): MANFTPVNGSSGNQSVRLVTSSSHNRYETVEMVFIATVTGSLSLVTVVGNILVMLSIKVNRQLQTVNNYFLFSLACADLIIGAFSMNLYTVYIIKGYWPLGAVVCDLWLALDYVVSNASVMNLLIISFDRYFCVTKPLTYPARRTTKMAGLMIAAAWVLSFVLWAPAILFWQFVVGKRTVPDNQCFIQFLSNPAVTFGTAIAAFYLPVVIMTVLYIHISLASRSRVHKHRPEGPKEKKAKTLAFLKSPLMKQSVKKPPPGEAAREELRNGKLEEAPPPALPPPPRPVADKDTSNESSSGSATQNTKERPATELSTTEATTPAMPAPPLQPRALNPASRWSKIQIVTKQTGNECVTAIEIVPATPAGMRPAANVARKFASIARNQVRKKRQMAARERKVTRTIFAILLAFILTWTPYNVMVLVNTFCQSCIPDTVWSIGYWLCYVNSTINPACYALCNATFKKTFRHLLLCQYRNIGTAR
- Measurement Description: Muscarinic hM4 Agonist GloSensor cAMP Assay
- Format: cell-based
- Recorded Conditions: HEK293 human/M4/GloSensor cells, EC80 isoproterenol; geometric mean, number of determinations in parentheses; read-out: EC50
Each record here notes measured log10 EC50.
// do not treat as linear: log10 of EC50, unit nM

Some solved entries appear below for comparison.
[
  {
    "Compound": "CCOC(=O)N1CC2(CCC(N3CCN(c4ncccc4-c4ncco4)CC3)C2)C1 (centres unmarked)",
    "log10 EC50": 0.71
  },
  {
    "Compound": "CCOC(=O)N1CC2(CCC(N3CCN(c4cccnc4OC(F)F)CC3)C2)C1 (single isomer, unassigned)",
    "log10 EC50": 0.16
  },
  {
    "Compound": "CCOC(=O)N1CC2(CCC(N3CCN(c4ncccc4N4CC(C#N)C4)CC3)C2)C1 (centres unmarked)",
    "log10 EC50": 0.36
  }
]

Value of measured log10 EC50 for the entry CCOC(=O)N1CC2(CCC(N3CCN(c4ncccc4-c4cccnn4)CC3)C2)C1 (centres unmarked) : 0.91

Value of measured log10 EC50 for the entry CCOC(=O)N1CC2(CC[C@@H](N3CCN(c4nccnc4N4CCOCC4)CC3)C2)C1 : 1.09
